- study-target: Prostaglandin G/H synthase 2 (Ovis aries)
- Sequence (P79208 whole entry): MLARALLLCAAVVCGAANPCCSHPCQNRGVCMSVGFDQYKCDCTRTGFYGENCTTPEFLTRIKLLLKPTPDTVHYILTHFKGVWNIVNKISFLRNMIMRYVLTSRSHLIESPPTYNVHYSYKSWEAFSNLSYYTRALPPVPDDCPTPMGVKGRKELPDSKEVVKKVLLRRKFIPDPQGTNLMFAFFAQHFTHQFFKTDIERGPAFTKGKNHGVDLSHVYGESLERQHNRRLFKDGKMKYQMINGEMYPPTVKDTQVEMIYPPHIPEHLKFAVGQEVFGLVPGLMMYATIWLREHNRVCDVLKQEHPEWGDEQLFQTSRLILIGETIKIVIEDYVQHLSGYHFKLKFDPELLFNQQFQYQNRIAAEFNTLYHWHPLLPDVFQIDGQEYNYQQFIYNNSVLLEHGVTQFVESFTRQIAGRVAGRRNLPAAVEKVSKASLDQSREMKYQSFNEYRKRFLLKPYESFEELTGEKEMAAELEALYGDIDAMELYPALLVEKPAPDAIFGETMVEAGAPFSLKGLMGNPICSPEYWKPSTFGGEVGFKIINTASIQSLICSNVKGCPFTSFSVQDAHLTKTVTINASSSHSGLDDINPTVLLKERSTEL
- assay-summary: Inhibition of ovine COX-2 using arachidonic acid as substrate preincubated with enzyme for 5 mins followed by incubation with substrate for 5 mins by colorimetric analysis
test-readout: pIC50
Quick note: pIC50 means taking -log10 of the concentration in moles per liter.

Report pIC50 for `COc1ccc(-c2nn(-c3ccc(Cl)cc3)cc2/C=C/c2cc(C(=O)N3CCOCC3)c3cc(Cl)ccc3n2)cc1`
7.00

====

- study-target: Prostaglandin G/H synthase 1 (Ovis aries, UniProt P05979)
- Sequence (P05979 whole entry): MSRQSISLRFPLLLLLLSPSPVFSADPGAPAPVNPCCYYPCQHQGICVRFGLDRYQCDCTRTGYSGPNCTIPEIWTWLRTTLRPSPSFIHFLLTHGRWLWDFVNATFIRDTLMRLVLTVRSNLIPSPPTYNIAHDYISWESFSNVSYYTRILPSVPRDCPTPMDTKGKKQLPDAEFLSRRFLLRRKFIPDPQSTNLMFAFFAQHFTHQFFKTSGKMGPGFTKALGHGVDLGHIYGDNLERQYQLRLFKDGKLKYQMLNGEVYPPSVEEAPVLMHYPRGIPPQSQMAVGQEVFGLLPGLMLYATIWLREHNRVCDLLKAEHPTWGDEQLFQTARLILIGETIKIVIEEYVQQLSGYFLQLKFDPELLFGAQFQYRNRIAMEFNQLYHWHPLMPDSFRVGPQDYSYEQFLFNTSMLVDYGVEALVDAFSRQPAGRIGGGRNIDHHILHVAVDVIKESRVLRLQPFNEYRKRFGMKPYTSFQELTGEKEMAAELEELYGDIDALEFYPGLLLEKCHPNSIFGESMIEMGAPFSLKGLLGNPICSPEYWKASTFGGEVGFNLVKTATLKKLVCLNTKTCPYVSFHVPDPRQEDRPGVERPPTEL
- assay-summary: Inhibition of ovine COX-1 using arachidonic acid as substrate preincubated with enzyme for 20 mins followed by incubation with substrate for 2 mins by ADPH based fluorometric analysis
test-readout: IC50 (nM)
I only need the number, in nM, no unit after it.

Report value: IC50, system: Prostaglandin G/H synthase 1 (Ovis aries, UniProt P05979), compound: `COc1ccc(-c2cc(-c3nnc(SC/C(=N/O)c4ccccc4)n3-c3ccccc3)c3ccccc3n2)cc1`
480

====

- study-target: Prostaglandin G/H synthase 1 (Ovis aries, UniProt P05979)
- assay-summary: Inhibition of ovine COX-1 by colorimetric analysis
test-readout: IC50 (nM)
I only need the number, in nM, no unit after it.

Report IC50 for `COc1ccc(/C=C2\N=C(c3cccnc3)N(c3ccccc3)NC2=O)cc1`
100

====

- study-target: Prostaglandin G/H synthase 2 (Homo sapiens, UniProt P35354)
- assay-summary: Inhibition of human recombinant COX-2 using arachidonic acid as substrate preincubated with enzyme for 20 mins followed by incubation with substrate for 2 mins by ADPH based fluorometric analysis
test-readout: IC50 (µM)
I only need the number, in µM, no unit after it.

Report IC50 for `COc1ccc(-c2cc(-c3nnc(SC/C(=N/O)c4ccccc4)n3-c3ccccc3)c3ccccc3n2)cc1`
1.6

====

- study-target: Prostaglandin G/H synthase 2 (Homo sapiens)
- assay-summary: Potency index, ratio of diclofenac sodium IC50 to test compound IC50 for human recombinant COX-2 using arachidonic acid as substrate preincubated with enzyme for 5 mins followed by substrate addition by colorimetric analysis
Binary call on Ratio IC50: yes (1) from 10 upward, no (0) beneath that.

line-notation	assigned-category
COc1cc(Cc2n[nH]c(=S)n(/N=C/c3cc4ccc(OCc5ccccc5)cc4nc3Cl)c2=O)cc(OC)c1OC	no (0)
Cc1ccc2nc(O)c(/C=N/n3c(=S)[nH]nc(Cc4cccs4)c3=O)cc2c1	no (0)
COc1cc(Cc2n[nH]c(=S)n(/N=C/c3cc4cc(C)ccc4nc3O)c2=O)cc(OC)c1OC	yes (1)
O=c1c(Cc2ccccc2)n[nH]c(=S)n1/N=C/c1cc2ccccc2nc1O	yes (1)
CC(C)Oc1ccc2nc(O)c(/C=N/n3c(=S)[nH]nc(Cc4ccccc4)c3=O)cc2c1	no (0)
COc1ccc2nc(O)c(/C=N/n3c(=S)[nH]nc(Cc4cc(OC)c(OC)c(OC)c4)c3=O)cc2c1	yes (1)
COc1ccc2cc(/C=N/n3c(=S)[nH]nc(Cc4ccccc4)c3=O)c(O)nc2c1	yes (1)
COc1ccc2cc(/C=N/n3c(=S)[nH]nc(Cc4cc(OC)c(OC)c(OC)c4)c3=O)c(O)nc2c1	no (0)

Does the reported Ratio IC50 for `Cc1ccc2nc(O)c(/C=N/n3c(=S)[nH]nc(Cc4ccccc4)c3=O)cc2c1` fall at or above the 10 mark?
no (0)

Does the reported Ratio IC50 for `COc1ccc2nc(O)c(/C=N/n3c(=S)[nH]nc(Cc4ccccc4)c3=O)cc2c1` fall at or above the 10 mark?
yes (1)

Does the reported Ratio IC50 for `COc1cc(Cc2n[nH]c(=S)n(/N=C/c3cc4cccc(C)c4nc3Cl)c2=O)cc(OC)c1OC` fall at or above the 10 mark?
no (0)

Does the reported Ratio IC50 for `O=c1c(Cc2ccccc2)n[nH]c(=S)n1/N=C/c1cc2cc(OCc3ccccc3)ccc2nc1O` fall at or above the 10 mark?
yes (1)

====

- Tested on: RAW264.7
- assay-summary: Inhibition of LPS-induced TNFalpha production in mouse RAW264.7 cells preincubated for 2 hrs followed by LPS stimulation and measured after 20 hrs by ELISA
- Type: functional, cell-based
test-readout: pIC50
Quick note: pIC50 means taking -log10 of the concentration in moles per liter.

line-notation	study-target	pIC50
O=c1c(Cc2ccccc2)n[nH]c(=S)n1/N=C/c1cc2cc(OCc3ccccc3)ccc2nc1O	RAW264.7	4.72

Report pIC50 for `COc1cc(Cc2n[nH]c(=S)n(/N=C/c3cc4cccc(C)c4nc3Cl)c2=O)cc(OC)c1OC`
6.40

Report pIC50 for `Cc1ccc2nc(O)c(/C=N/n3c(=S)[nH]nc(Cc4ccccc4)c3=O)cc2c1`
4.52

Report pIC50 for `CC(C)Oc1ccc2nc(O)c(/C=N/n3c(=S)[nH]nc(Cc4ccccc4)c3=O)cc2c1`
4.46

Report pIC50 for `COc1ccc2cc(/C=N/n3c(=S)[nH]nc(Cc4ccccc4)c3=O)c(O)nc2c1`
5.08

====

# pIC50 listing for each entry below
- study-target: Prostaglandin G/H synthase 2 (Homo sapiens, UniProt P35354)
- assay-summary: Inhibition of human recombinant COX-2 using arachidonic acid as substrate preincubated with enzyme for 5 mins followed by substrate addition by colorimetric analysis
Quick note: pIC50 means taking -log10 of the concentration in moles per liter.

See these solved cases before continuing.
line-notation	pIC50
COc1ccc2nc(O)c(/C=N/n3c(=S)[nH]nc(Cc4ccccc4)c3=O)cc2c1	7.17
Cc1ccc2nc(O)c(/C=N/n3c(=S)[nH]nc(Cc4cccs4)c3=O)cc2c1	6.96
COc1ccc2cc(/C=N/n3c(=S)[nH]nc(Cc4ccccc4)c3=O)c(O)nc2c1	7.14
COc1cc(Cc2n[nH]c(=S)n(/N=C/c3cc4cccc(C)c4nc3Cl)c2=O)cc(OC)c1OC	6.80

Then this compound:
Report value: pIC50, system: Prostaglandin G/H synthase 2 (Homo sapiens, UniProt P35354), compound: `COc1ccc2nc(O)c(/C=N/n3c(=S)[nH]nc(Cc4cc(OC)c(OC)c(OC)c4)c3=O)cc2c1`
7.22

====

- study-target: Prostaglandin G/H synthase 2 (Homo sapiens)
- Sequence (P35354 whole entry): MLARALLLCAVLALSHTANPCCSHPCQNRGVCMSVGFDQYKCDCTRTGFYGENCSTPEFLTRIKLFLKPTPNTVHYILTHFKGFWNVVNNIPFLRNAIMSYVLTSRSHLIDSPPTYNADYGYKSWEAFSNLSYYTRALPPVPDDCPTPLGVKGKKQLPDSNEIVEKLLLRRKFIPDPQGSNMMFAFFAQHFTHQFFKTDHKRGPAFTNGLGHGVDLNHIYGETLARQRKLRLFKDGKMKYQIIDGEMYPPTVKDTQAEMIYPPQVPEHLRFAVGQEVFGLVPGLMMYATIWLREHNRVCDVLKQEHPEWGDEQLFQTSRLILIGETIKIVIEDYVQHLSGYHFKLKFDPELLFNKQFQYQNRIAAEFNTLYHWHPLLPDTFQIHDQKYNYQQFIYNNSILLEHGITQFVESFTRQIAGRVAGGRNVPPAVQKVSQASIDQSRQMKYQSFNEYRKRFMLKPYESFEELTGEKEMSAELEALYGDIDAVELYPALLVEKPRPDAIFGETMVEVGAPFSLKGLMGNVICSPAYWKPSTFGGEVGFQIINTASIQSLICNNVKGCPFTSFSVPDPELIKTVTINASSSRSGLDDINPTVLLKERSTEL
- assay-summary: Inhibition of COX-2 (unknown origin) using arachidonic acid as substrate preincubated with enzyme for 1 min followed by substrate addition by fluorometric analysis
test-readout: IC50 (nM)
I only need the number, in nM, no unit after it.

Report IC50 for `COc1ccc2ccc(F)c(CC(=O)N/N=C/c3ccc(C(F)(F)F)cc3)c2n1`
130

Source of measurements: ChEMBL document CHEMBL4819098
